Provide the recorded normalized growth for the entries that follow.
- method_summary: chemical genetic growth profiling, strain panel (AID 1159580);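 note: tested at 20 µM; growth read once vehicle control cultures reached saturation at 30 °C; 1 = growth at the plate median or of vehicle wells; lower values mean less growth of the strain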
- condition_parameters: S. cerevisiae deletion strains, growth OD, locus YPR119W, strain clb2, active compounds read low
In all, about 5,500 compounds went through this assay and about 2,000 (36%) were called active. Another 18% or so got no clear call; they are omitted. The list shows a part of the results.
Give bare numbers.

compound	normalized growth
COc1cc(O)c(C(=O)O)c(O)c1	0.987
CN1CCN(C(c2ccccc2)c2ccccc2)CC1	0.977
C[C@]12CCC3C(CC[C@H]4C[C@@H](Cl)CC[C@]34C)C1CCC2=O (stereo partly specified)	1.03

Give measured normalized growth for every item shown.
1. C[C@]12CCC3C(CC[C@H]4C[C@@H](O)CC[C@]34C)C1CCC2=O (stereo partly specified)
2. CCNc1nc(Cl)nc(NC(C)C)n1
3. Fc1ccc(C(c2ccc(F)cc2)N2CCN(C/C=C/c3ccccc3)CC2)cc1

Reply |
1: 1.04; 2: 1.01; 3: 0.979

====

- method_summary: chemical genetic growth profiling, strain panel (AID 1159580);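 note: tested at 20 µM; growth read once vehicle control cultures reached saturation at 30 °C; 1 = growth at the plate median or of vehicle wells; lower values mean less growth of the strain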
- condition_parameters: S. cerevisiae deletion strains, growth OD, locus YLR258W, strain gsy2, active compounds read low
About 2,000 (36%) of roughly 5,500 compounds were called active. Roughly 18% stayed inconclusive and do not appear here. This is one part of the list.
Provide the recorded normalized growth for the entries that follow.
Numbers only.

Give measured normalized growth for every item shown.
1. COc1c2c(cc3occ(-c4ccc5c(c4)OCO5)c(=O)c13)OC(C)(C)C=C2
2. OCCN1CCN(CCCN2c3ccccc3Sc3ccc(Cl)cc32)CC1

Reply |
0.989
1

Give measured normalized growth for every item shown.
1. COc1c2occc2cc2ccc(=O)oc12
2. O=c1n(CCCN2CCN(c3cccc(Cl)c3)CC2)nc2ccccn12
3. COc1cc2c(cc1-c1coc3c4c(c(OC)cc3c1=O)OC(C)(C)C=C4)OCO2
4. C[N+]1(C)CCc2cc3c(cc2[C@H]1C1OC(=O)c2c1ccc1c2OCO1)OCO3 (stereo partly specified)
5. Cn1nnnc1SCC1=C(C(=O)O)N2C(=O)C(NC(=O)C(OC=O)c3ccccc3)C2SC1 (stereo unspecified)
6. CC(C)=CCC1=C(O)c2ccccc2C(=O)C1=O
7. CC(C)=CCc1c(O)cc2occ(-c3ccc4c(c3)OCO4)c(=O)c2c1O

Reply |
[0.945, 0.99, 0.978, 1.01, 0.998, 0.797, 0.919]

Give measured normalized growth for every item shown.
1. N#Cc1ccc2c(c1)N(CCCN1CCC(O)CC1)c1ccccc1S2
2. CC1=C(C(=O)O)N2C(=O)[C@@H](NC(=O)[C@H](N)C3=CCC=CC3)C2SC1 (stereo partly specified)

Reply |
1: 0.977; 2: 1.03

====

- method_summary: chemical genetic growth profiling, strain panel (AID 1159580);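 note: tested at 20 µM; growth read once vehicle control cultures reached saturation at 30 °C; 1 = growth at the plate median or of vehicle wells; lower values mean less growth of the strain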
- condition_parameters: S. cerevisiae deletion strains, growth OD, locus YDL101C, strain DUN1, active compounds read low
The whole screen tested about 5,500 compounds, of which about 2,000 (36%) were called active. Roughly 18% stayed inconclusive and do not appear here. Some of the results follow.
Provide the recorded normalized growth for the entries that follow.
One number for each entry.

compound	normalized growth
COc1cc2ccc(=O)oc2c(O)c1O	0.984
CCC(=O)Oc1ccc(NC(=S)NCCCO)cc1	0.998
CCCCCN=C(N)N/N=C\c1c[nH]c2ccc(OC)cc12	1.01
CC(C(=O)O)c1ccc(N2Cc3ccccc3C2=O)cc1 (stereo not given)	1.01
CCCc1ccc(OC)cc1NC(C)=O	1

Give measured normalized growth for every item shown.
1. Cc1c(Cl)cccc1N=C1SCC(=O)N1Cc1ccco1
2. CC1(C)C[C@@H]2C(=O)CC[C@H]3O[C@]3(C)CC[C@H]21
3. CCNc1nc(Cl)nc(NC(C)C)n1
4. COc1cccc(NC(=S)NCc2ccco2)c1

Reply |
1. 0.979
2. 1.02
3. 1.03
4. 1.03

Give measured normalized growth for every item shown.
1. COc1ccc(-n2c(SCc3ccc(Br)cc3)nnc2-c2ccco2)cc1
2. Cn1c([N+](=O)[O-])cnc1COC(N)=O
3. O=C1CSC(=Nc2cc(Cl)cc(Cl)c2)N1Cc1cccnc1
4. CCCc1cc(C(=O)Nc2ccc(N(CC)CC)cc2)nn1-c1ccccc1
5. CCCCCc1ccc(S(=O)(=O)Nc2cccnc2Oc2ccc(Cl)cc2)cc1
6. CC(=O)O[C@@H]1CC2C(C)(C)C(=O)[C@@H]3O[C@@H]3[C@]2(C)C2CC[C@]3(C)C(=CC(=O)O[C@H]3c3ccoc3)[C@@]21C (stereo not given in full)
7. COc1cc2ccc(=O)oc2cc1O
8. COc1cc2ccc(=O)oc2c(OC)c1OC

Reply |
1: 1; 2: 1.02; 3: 0.988; 4: 0.981; 5: 0.992; 6: 0.994; 7: 0.999; 8: 1.02

Give measured normalized growth for every item shown.
1. Cc1c(N(C)CS(=O)(=O)O)c(=O)n(-c2ccccc2)n1C
2. CC(=O)/C(=C\N(C)C)Sc1nnc(C(F)(F)F)n1C
3. COc1ccc2ccc(=O)oc2c1CC=C(C)C
4. O=C(CSc1nnc(-c2ccco2)n1-c1ccc2c(c1)OCCO2)c1cccc(F)c1

Reply |
1. 1
2. 0.968
3. 0.768
4. 0.987

meta.source: PubChem BioAssay AID1159580
